The values you see were collected from PubChem BioAssay AID493200.

assay: qHTS Assay for Rab9 Promoter Activators: Initial hit validation from the primary screen; details: Huh7 Rab9 promoter luciferase reporter, 24 h; series mostly up to 46.1 µM; as to activation: % of control where 0% means no effect
Records with an inconclusive call do not appear. The source made the active and inactive calls. Calls follow the shape of the dose curve; as a rule, active = well fitted activation curve with a large enough effect; inconclusive = small, poorly fitted or top-dose-only effect; inactive = no such curve, though single readings can be large or run the other way.
Outcome (select one): yes (1) = active, no (0) = inactive

Query: How did this test come out for `N#C/C(=C\c1ccc[nH]1)C(=O)Nc1ccccc1Cl` ?
Response: yes (1)

Query: Moving on to the next compound: `COc1cccc(CNC(=O)CN(c2cc(C)cc(C)c2)S(=O)(=O)c2c(C)noc2C)c1`
Response: no (0)

Query: Moving on to the next compound: `Cc1nnc2n(c1=O)N=C(c1ccc(Cl)cc1)CS2`
Response: yes (1)

Query: Moving on to the next compound: `Cc1ccc2nc(Nc3ccc(Cl)cc3)c3nncn3c2c1`
Response: no (0)

Query: Moving on to the next compound: CC(Sc1nnc(C(F)(F)F)n1C)C(=O)Nc1ccc(S(N)(=O)=O)cc1 (centres undefined)
Response: no (0)

Query: Moving on to the next compound: `O=C(CSc1nnc(-c2ccccn2)o1)Nc1ccccc1F`
Response: yes (1)

Query: Moving on to the next compound: O=C(CCc1cccc(Cl)c1)NC1CCCN(Cc2ccccc2F)C1 (centres undefined)
Response: no (0)

Query: Moving on to the next compound: `CCN(CC)S(=O)(=O)c1ccc(NCc2ccccn2)nc1`
Response: no (0)

Query: Moving on to the next compound: `O=C(c1cccc(Oc2ccc([N+](=O)[O-])cc2)c1)N1CCOCC1`
Response: no (0)

Query: Moving on to the next compound: `Nc1ccccc1C(=O)N/N=C1/C2CN3CCN(C2)CC1(Cc1ccccc1)C3`
Response: no (0)

Query: Moving on to the next compound: `O=C(Nc1nc2ccc(F)cc2s1)c1ccc(N2CCCC2=O)cc1`
Response: yes (1)

Query: Moving on to the next compound: `Cc1cccc(C)c1NC(=O)Nc1cccs1`
Response: no (0)

Query: Moving on to the next compound: `O=C(NCCSCc1c(F)cccc1Cl)c1ccc(CN2CCOCC2)cc1`
Response: no (0)

Query: Moving on to the next compound: `CC(C)(C)C(=O)N/C(N)=N/c1nc2ccccc2o1`
Response: yes (1)

Query: Moving on to the next compound: `Cc1[nH]n(-c2cccc3ccccc23)c(=O)c1/C=N/c1sc2c(c1C#N)CCC2`
Response: no (0)

Query: Moving on to the next compound: O=C(CCCN1C(=O)C(c2ccccc2)Oc2cccnc21)Nc1ccccc1Cl (centres undefined)
Response: no (0)

Query: Moving on to the next compound: `Cc1nn(CCCC(=O)NCc2ccc(F)cc2)c(C)c1[N+](=O)[O-]`
Response: no (0)

Query: Moving on to the next compound: `Nc1ccc(C(=O)Nc2ccccc2N)cc1`
Response: yes (1)

Query: Moving on to the next compound: COc1ccc2oc(=O)c(C(=O)NC(C)c3ccccc3)cc2c1 (centres undefined)
Response: no (0)

Query: Moving on to the next compound: CCCOP(=O)(c1ccc(N(C)C)cc1)C(O)c1cccnc1 (centres undefined)
Response: no (0)

Query: Moving on to the next compound: `S=C1NCN(CCc2ccccc2)CN1Cc1ccccc1`
Response: no (0)

Query: Moving on to the next compound: `O=C(O)CSc1nnc(-c2ccncc2)n1CCc1ccccc1`
Response: no (0)

Query: Moving on to the next compound: `CNC(=O)Cn1nc(C)c2ccccc2c1=O`
Response: no (0)

Query: Moving on to the next compound: `N#C/C(=N\Nc1ccc(Cl)cc1)C(=N)N1CCCCC1`
Response: yes (1)

====

experiment: qHTS Assay for Rab9 Promoter Activators: Initial hit validation from the primary screen; conditions: Huh7 Rab9 promoter luciferase reporter, 24 h; series mostly up to 46.1 µM; also: potency is read from the fitted curve at half-maximal effect; as to activation: % of control where 0% means no effect
Records with an inconclusive call do not appear. Activity calls are given as the source filed them. Calls follow the shape of the dose curve; as a rule, active = well fitted activation curve with a large enough effect; inconclusive = small, poorly fitted or top-dose-only effect; inactive = no such curve, though single readings can be large or run the other way.
measured attribute: Potency

Illustrative cases are given below, each with its answer.
compound: COc1ccc([N+](=O)[O-])cc1COc1ccc2c(-c3ccccc3)cc(=O)oc2c1
Potency: inactive

compound: Cc1noc(/C=C/N(C)C)c1S(=O)(=O)N1CCCC(C(=O)N2CCCCC2)C1 (stereo not given)
Potency: inactive

compound: COc1ccc(S(=O)(=O)N2CCCC(C(=O)NCc3ccncc3)C2)cc1Cl (stereo not given)
Potency: inactive

compound: COc1ccc(NC(=O)CCCN2C(=O)C(c3ccccc3)Oc3cccnc32)cc1OC (stereo not given)
Potency: inactive

compound: COc1ccccc1NC(=S)NCc1ccc(Cl)cc1
Potency: inactive

compound: CCc1cc(C(=O)Nc2ccccc2)cs1
Potency: 2810 nM (active)

compound: Cc1nc(-c2ccccn2)sc1C(=O)Nc1ccc(F)cc1F
Potency: 9960 nM (active)

compound: CC(=O)[C@@H]1[C@@H](C(=O)c2ccc(C)cc2)[C@]2(C(=O)Nc3ccccc32)[C@H]2C=Cc3cc(F)ccc3N12
Potency: inactive

compound: COc1ccc(-c2csc(Nc3ncccn3)n2)cc1C
Potency: 281 nM (active)

Kindly review the next compound as well.
Query: What does the record list as Potency for O=C(C1COc2ccccc2O1)N1CCN(S(=O)(=O)c2ccccc2)CC1 (stereo not given) ?
Response: inactive

====

Assay: qHTS Assay for Rab9 Promoter Activators: Initial hit validation from the primary screen; also: potency is read from the fitted curve at half-maximal effect; as to activation: % of control where 0% means no effect
Details: Huh7 Rab9 promoter luciferase reporter, 24 h; series mostly up to 46.1 µM
Text: NIH Chemical Genomics Center [NCGC] NIH Molecular Libraries Probe Production centers Network [MLPCN] […] The Rab9 promoter is cloned in front of the luciferase reporter gene, therefore […] promoter activation results in luciferase expression. […] 7.Read using the luminescence protocol on the ViewLux plate reader (Perkin Elmer).
Inconclusive results are not listed. Activity calls are given as the source filed them. Calls come from the whole dose curve; as a rule, active = well fitted activation curve with a large enough effect; inconclusive = small, poorly fitted or top-dose-only effect; inactive = no such curve, though single readings can be large or run the other way.
measured attribute: Potency

molecule: CCN(CC(=O)N(CC(C)C)c1c(N)n(CC(C)C)c(=O)[nH]c1=O)Cc1nc2ccccc2c(=O)[nH]1
Potency: inactive
--
molecule: COc1ccc(OC)c(S(=O)(=O)N2CCN3CCCC3C2)c1 (stereo unspecified)
Potency: inactive
--
molecule: Cc1ccc(C(=O)NC2CCN(CC(=O)Nc3c(C)cc(C)cc3C)CC2)cc1
Potency: inactive
--
molecule: COC(=O)c1sccc1NC(=S)OC
Potency: inactive
--
molecule: O=C(COc1ccccc1F)Nc1ccc(-c2nc3ccccc3s2)cc1
Potency: 223 nM (active)

Query: What does the record list as Potency for `CCCOC(=O)Cn1cnc2scc(-c3ccc(OC)cc3)c2c1=O` ?
Response: inactive

====

Experiment: qHTS Assay for Rab9 Promoter Activators: Initial hit validation from the primary screen; as to activation: % of control where 0% means no effect
Conditions: Huh7 Rab9 promoter luciferase reporter, 24 h; series mostly up to 46.1 µM
Source text: NIH Chemical Genomics Center [NCGC] NIH Molecular Libraries Probe Production centers Network [MLPCN] […] The Rab9 promoter is cloned in front of the luciferase reporter gene, therefore […] promoter activation results in luciferase expression. […] 7.Read using the luminescence protocol on the ViewLux plate reader (Perkin Elmer).
Inconclusive results are not listed. Calls of active or inactive are those of the source. Calls come from the whole dose curve; as a rule, active = well fitted activation curve with a large enough effect; inconclusive = small, poorly fitted or top-dose-only effect; inactive = no such curve, though single readings can be large or run the other way.
Outcome (select one): active, inactive

Query: How did this test come out for `COc1ccc(C2(CNC(=O)/C=C/c3ccco3)CCCC2)cc1OC` ?
Response: inactive

Query: Moving on to the next compound: `Cc1ccc(S(=O)(=O)N2CCN(c3cnn(C)c(=O)c3Cl)CC2)cc1`
Response: inactive

Query: Moving on to the next compound: `Cc1ccc(NC(=O)c2cccc(N3C(=O)CCC3=O)c2)nc1`
Response: inactive

Query: Moving on to the next compound: `Brc1ccccc1-c1nnc(CSc2nnc3sc4ccccc4n23)o1`
Response: inactive

Query: Moving on to the next compound: CCOc1ccc(CNC(=O)C2CCCN(S(C)(=O)=O)C2)cc1OC (stereo unspecified)
Response: inactive

Query: Moving on to the next compound: `CC(=O)Nc1nnc(SCC(=O)NCCOc2ccccc2)s1`
Response: inactive

Query: Moving on to the next compound: `COc1ccccc1CNC(=O)COc1ccc(C)cc1`
Response: inactive

Query: Moving on to the next compound: `CN(C)C(=O)[C@H]1C[C@H]1[C@@H](O)[C@H](CO)NC(=O)[C@H](COCc1ccccc1)NC(=O)OC(C)(C)C`
Response: inactive

Query: Moving on to the next compound: `COc1ccc(-c2csc(N(CCCN(C)C)C(=O)c3ccccc3C)n2)cc1`
Response: inactive

Query: Moving on to the next compound: `COc1ccc(NC(=S)NNC(=O)c2cccs2)cc1`
Response: active

Query: Moving on to the next compound: CC1=C(C(=O)OC2CCCC(C)C2)C(c2ccccc2)NC(=O)N1 (stereo unspecified)
Response: inactive

====

assay: qHTS Assay for Rab9 Promoter Activators: Initial hit validation from the primary screen; conditions: Huh7 Rab9 promoter luciferase reporter, 24 h; series mostly up to 46.1 µM; as to activation: % of control where 0% means no effect
Results filed as inconclusive are left out. Calls of active or inactive are those of the source. Calls follow the shape of the dose curve; as a rule, active = well fitted activation curve with a large enough effect; inconclusive = small, poorly fitted or top-dose-only effect; inactive = no such curve, though single readings can be large or run the other way.
Outcome (select one): True (active), False (inactive)

Query: How did this test come out for `CC(C)CC(=O)N1CCN(c2ccc(NC(=O)c3ccco3)cc2)CC1` ?
Response: False

Query: Moving on to the next compound: `COC(=O)CSc1nc2cc3c(cc2cc1C#N)OCO3`
Response: True

Query: Moving on to the next compound: `O=C(CSc1nnc(-c2ccc([N+](=O)[O-])cc2)o1)Nc1ccccn1`
Response: True

Query: Moving on to the next compound: `Fc1ccc(-c2nc3nc4ccccc4nc3n2Cc2ccco2)cc1`
Response: False

Query: Moving on to the next compound: `CCOC(=O)CSc1nc2cc(C)ccc2cc1C#N`
Response: True

Query: Moving on to the next compound: `Cc1ccccc1NC(=O)CSc1ccc(-c2cccnc2)nn1`
Response: False
